Test system: dengue virus type 2
Assay: Antiviral activity against NS3 T606A mutant and NS4B V63M mutant containing Dengue virus 2 isolate P12-III infected in human HuH7 cells using viral isolates selected by serial passaging in presence of test compound incubated for 3 days by viral reduction assay
Format: functional, organism-based
Conditions: Huh-7, 72 h
metric: EC50

Data request: Which EC50 is listed for C[C@@H](c1ccc(Cl)cc1)n1nnc2c1NC(=O)C[C@]21C(=O)N(CCN(C)C)c2ccc(Cl)cc21 ?
Data returned: > 6 µM

###

Test system: dengue virus type 3
Experiment: Antiviral activity against Dengue virus 3 D3MY05-34640 infected in human HuH7 replicon cells expressing Renilla luciferase and neomycin-resistance genes assessed as reduction in viral replication incubated for 48 hrs by luciferase reporter replicon-based assay
Type: functional, organism-based
Details: D3MY05-34640, Huh-7, 48 h
metric: pEC50
// pEC50: -log10(molar conc.)

// below: answered compounds
[[record]]
sample_smiles = "C[C@@H](c1ccc(Cl)cc1)n1nnc2c1NC(=O)C[C@]21C(=O)N(CCCCCCCCCCN(C)C)c2ccc(Cl)cc21"
metric = "pEC50"
recorded_result = 7.01

[[record]]
sample_smiles = "COCCCN1C(=O)[C@]2(CC(=O)Nc3c2nnn3[C@@H](C)c2ccc(Cl)cc2)c2cc(Cl)ccc21"
metric = "pEC50"
recorded_result = 8.05

[[record]]
sample_smiles = "CCN1C(=O)[C@]2(CC(=O)Nc3c2nnn3[C@@H](C)c2ccc(Cl)cc2)c2cc(Cl)ccc21"
metric = "pEC50"
recorded_result = 8.22

[[record]]
sample_smiles = "CCOC(CN1C(=O)[C@]2(CC(=O)Nc3c2nnn3[C@@H](C)c2ccc(Cl)cc2)c2cc(Cl)ccc21)OCC"
metric = "pEC50"
recorded_result = 7.12

[[record]]
sample_smiles = "C[C@@H](c1ccc(Cl)cc1)n1nnc2c1NC(=O)C[C@]21C(=O)N(CCCCN2CCCCC2)c2ccc(Cl)cc21"
metric = "pEC50"
recorded_result = 7.11


Data request: Which pEC50 is listed for C[C@@H](c1ccc(Cl)cc1)n1nnc2c1NC(=O)C[C@]21C(=O)N(CCC(C)(C)C)c2ccc(Cl)cc21 ?
Data returned: 7.09

Data request: What do we get for C[C@@H](c1ccc(Cl)cc1)n1nnc2c1NC(=O)C[C@]21C(=O)N(CCCCCCN(C)C)c2ccc(Cl)cc21 ?
Data returned: 7.18

Data request: What do we get for C[C@@H](c1ccc(Cl)cc1)n1nnc2c1NC(=O)C[C@]21C(=O)N(C)c2ccc(Cl)cc21 ?
Data returned: 8.40
